# system-name: T1, human LIV-1 (human, UniProt Q13433 29-755)
# T1 construct: whole, on cells; also called H-LIV1
# T1 sequence (looked up): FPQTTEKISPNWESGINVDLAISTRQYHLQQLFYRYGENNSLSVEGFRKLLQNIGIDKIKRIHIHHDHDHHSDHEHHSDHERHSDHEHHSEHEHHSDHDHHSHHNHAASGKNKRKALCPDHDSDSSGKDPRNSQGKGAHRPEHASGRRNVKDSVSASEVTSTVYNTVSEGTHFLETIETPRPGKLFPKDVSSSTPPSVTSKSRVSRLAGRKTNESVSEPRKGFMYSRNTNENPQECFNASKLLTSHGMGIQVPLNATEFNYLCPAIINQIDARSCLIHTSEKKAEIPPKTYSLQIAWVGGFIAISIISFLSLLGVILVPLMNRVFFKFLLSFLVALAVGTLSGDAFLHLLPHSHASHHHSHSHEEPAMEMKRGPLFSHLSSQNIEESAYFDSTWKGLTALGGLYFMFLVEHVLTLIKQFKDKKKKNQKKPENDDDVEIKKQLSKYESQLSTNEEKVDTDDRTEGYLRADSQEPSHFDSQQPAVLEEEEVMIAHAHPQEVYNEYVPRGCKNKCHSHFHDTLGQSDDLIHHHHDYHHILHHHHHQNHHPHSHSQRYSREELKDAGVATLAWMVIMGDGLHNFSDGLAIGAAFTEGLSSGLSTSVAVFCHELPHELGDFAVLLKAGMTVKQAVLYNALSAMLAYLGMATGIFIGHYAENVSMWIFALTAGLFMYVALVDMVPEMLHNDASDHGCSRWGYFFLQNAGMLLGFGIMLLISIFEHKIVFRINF
# assay-comment: FACS, HEK293/H_LIV-1 cells
Listed binders paired with reported EC50
Express it in nM; write the number only.

Task: Using the record for 124H4D11.p2.z13 (antibody, V domains shown) VH: QVPLVQSGAEVVKPGASVKLSCKASGFNIKDYYMHWVKQAPGQGLEWIGWIDPENDDTEYDPKFQGRATMTADTSTSTAYLELSSLRSEDTAVYYCNARYYAFDYWGQGTTVTVSS VL: DVLMTQSPSSLSVSVGDRATISCRSSQSIVHSNANTYLEWYLQKPGKSPKLLIYKVSNRFSGVPDRFSGSGSGTEFTLTISSVQPEDFGVYYCFQGSQVPPTFGGGTRLEIK , report its EC50.
Result: 7.48

Task: // repeat for 124H4D11.p2.z4 (antibody, V domains shown) VH: QVQLVQSGAEVVKPGASVKVSCKASGFNIKDYYMHWVRQAPGQGLEWIGWIDPENDDTEYDPKFQGRVTMTADTSTSTVYMELSSLRSEDTAVYYCAARYYAFDYWGQGTMVTVSS VL: DVLMTQSPLSLPVTLGQPASISCRSSQSIVHSNANTYLEWYLQRPGQSPRLLIYKVSNRFSGVPDRFSGSGSGTDFTLKISRVEAEDVGVYYCFQGSQVPPTFGQGTKLEIK and report
Result: 0.13

Task: Cool, now 124H4D11.p2.z5 (antibody, V domains shown) VH: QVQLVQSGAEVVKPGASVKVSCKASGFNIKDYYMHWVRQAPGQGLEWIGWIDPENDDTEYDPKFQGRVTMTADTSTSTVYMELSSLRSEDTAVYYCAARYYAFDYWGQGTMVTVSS VL: DVLMTQSPLSLPVTLGQPASISCRSSQSIVHSNANTYLEWYLQRPGQSPKLLIYKVSNRFSGVPDRFSGSGSGTEFTLKISRVEAEDLGVYYCFQGSQVPPTFGGGTKLEIK
Result: 0.58

Task: Try this binder next: 5D6B10.Z8 (antibody, V domains shown) VH: QVQLVQSGGGVVQPGRSLRLSCTVSGFSLTTYGIHWVRQSPGKGLEWLGVIWTGGTTDYNAAFISRLTISKDNSKSTVYFQMNSLQAEDTAIYYCARGPSSYWGQGTLVTVSS VL: EIVMTQSPATLSVSPGERATVSCKASQNVDTNVVWYQQKPGQSPRALIHSASYRYSGVPDRFSGSGSGTDFTLTISSLQSEDFAVYFCQQYNNYPWTFGQGTKVEIK
Result: 0.19
